Measured values drawn from patent US6046310 for this set.

- tgt: Fas on the cell surface of human cell lines (MOLT-4, CESS, T47D) (human, UniProt P25445)
- assay: cell-based or functional assay
parameter: % apoptotic cells, T47D (% apoptotic cells)
Numbers only here, please. The scale is % apoptotic cells.

Please fill in: % apoptotic cells, T47D reported for HuABL364 Ig-FasL5 Y192A (other) heavy (part 1 of 2): EVQLLESGGGLVQPGGSLRLSCAASGFTFSDYYMYWVRQAPEKRLEWVAYISNGGGSSHYVDSVKGRFTISRDNAKNTLYLQMNSLRAEDTALYHCARGMDYGAWFAYWGQGTLVTVSS heavy (part 2 of 2): GTGHPSPPPEKKELRKVAHLTGKSNSRSMPLEWEDTYGIVLLSGVKYKKGGLVINETGLYFVASKVYFRGQSCNNLPLSHKVYMRNSKYPQDLVMMEGKMMSYCTTGQMWARSSYLGAVFNLTSADHLYVNVSELSLVNFEESQTFFGLYKL light: DIVMTQSPLSLPVTPGEPASISCRSSQSIVHSNGNTYLEWYLQKPGQSPQLLISKVSNRFSGVPDRFSGSGSGTDFTLKISRVEAEDVGVYYCFQGSHVPFTFGQGTKLEIK = 10
